Conditions: 293.15 K; 65000 kPa; Liquid; Vibrating tube method
Measured quantity: mass density (kg/m3)

CCOC(C)(C)C [2-ethoxy-2-methylpropane] :: 795.1
CC(C)OC(C)C [diisopropyl ether] :: 780.83
CC(C)CCOCCC(C)C [di-(3-methylbutyl) ether] :: 818.18
CCCCOC [butyl methyl ether] :: 797.33
CCCCCOCCCCC [dipentyl ether] :: 824.26
CCCOCCC [dipropyl ether] :: 798.64
COC(C)(C)C [2-methoxy-2-methylpropane] :: 795
CCCCOCC [butyl ethyl ether] :: 799.99

###

Conditions: 333.15 K; 50000 kPa; Liquid; Vibrating tube method
Measured quantity: mass density (kg/m3)

CC(C)OC(C)C :: 740.18
CCCOCCC :: 759.32
CCCCCOCCCCC :: 790.54
CCCCOC :: 757.06
CCCCOCC :: 761.02
CCOC(C)(C)C :: 754.86
CC(C)CCOCCC(C)C :: 784.33
